# target: Calpain-2 catalytic subunit (Sus scrofa, UniProt P43367)
# Sequence (P43367 whole entry): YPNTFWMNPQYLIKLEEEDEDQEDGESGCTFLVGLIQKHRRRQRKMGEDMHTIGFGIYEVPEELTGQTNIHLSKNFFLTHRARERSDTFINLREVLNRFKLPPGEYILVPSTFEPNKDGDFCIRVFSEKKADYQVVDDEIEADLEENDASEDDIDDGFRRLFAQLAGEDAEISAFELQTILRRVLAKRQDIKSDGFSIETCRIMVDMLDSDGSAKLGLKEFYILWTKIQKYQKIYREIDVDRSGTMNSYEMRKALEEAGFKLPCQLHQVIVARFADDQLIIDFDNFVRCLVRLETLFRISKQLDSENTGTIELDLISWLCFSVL
# assay.procedure: pig calpain II inhibitor potency, dose response, biochemical, fluorogenic peptide substrate (AID 1420)
# Type: functional
The source made the active and inactive calls.
Reported IC50 by item:

These solved cases illustrate the format of a correct answer.
[in] What measured IC50 goes with O=C(CSc1cccc[n+]1[O-])c1cc(Cl)ccc1Cl ?
[out] > 50 µM (not active)

[in] Moving on to the next compound: O=C1C=C(Nc2ccccc2)C(=O)c2ccccc21
[out] 6.16 µM (not active)

[in] Moving on to the next compound: O=C(CSc1nc(-c2ccc(F)cc2)nc2c1Cc1ccccc1O2)Nc1cccc(C(=O)O)c1
[out] > 50 µM (not active)

Next:
[in] What measured IC50 goes with CC1Cc2ccccc2N1C(=O)COC(=O)C1(c2ccccc2F)CCCC1 (configuration not stated) ?
[out] 7.23 µM (not active)

[in] Moving on to the next compound: CCCCn1c(-c2csc(C(C)C)c2)n[nH]c1=S
[out] > 50 µM (not active)

[in] Moving on to the next compound: CCOC(=O)[C@H]1O[C@@H]1C(=O)N[C@@H](CC(C)C)C(=O)NCCC(C)C
[out] 1.77 µM (active)

[in] Moving on to the next compound: O=C(Oc1ccc2c(c1)OCO2)C12CC3CC(CC(C3)C1)C2
[out] 5.49 µM (not active)

----------
# assay.procedure: inhibitors of clade B AD8 Env fusion, dose response, cell-based, cherry-pick (AID 652062);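 further: luciferase signal from cell-cell fusion driven by HIV-1 clade B AD8 Env; potency is for inhibitors of fusion seen as a drop in luminescence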
# Assay type: functional
Calls of active or inactive are those of the source.
readout.name: AC50

These solved cases illustrate the format of a correct answer.
[in] What measured AC50 goes with C[C@@]12C(=O)N(Cc3ccccc3)CC(=O)N1[C@H]1c3ccccc3OC[C@@H]1[C@@H]2c1ccccc1 ?
[out] 6.27 µM (active)

[in] Moving on to the next compound: COc1ccc(CCN2C(=O)c3[nH]nc(-c4ccccc4O)c3C2c2ccc(C)cc2)cc1OC (centres undefined)
[out] 6.57 µM (active)

[in] Moving on to the next compound: C#CCn1c(=O)c2c(ncn2C)n(C)c1=O
[out] 43.1 µM (active)

The record that follows has no AC50 shown yet.
[in] What measured AC50 goes with O=C(CN1C(=O)c2ccccc2S1(=O)=O)c1ccccc1Cl ?
[out] 4.22 µM (active)

----------
# target: Sentrin-specific protease 8 (Homo sapiens, UniProt Q96LD8);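 further: luminescence read-out of SENP8 inhibition, dose-response confirmation following an ultra-high-throughput screen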
# Sequence (Q96LD8 whole entry): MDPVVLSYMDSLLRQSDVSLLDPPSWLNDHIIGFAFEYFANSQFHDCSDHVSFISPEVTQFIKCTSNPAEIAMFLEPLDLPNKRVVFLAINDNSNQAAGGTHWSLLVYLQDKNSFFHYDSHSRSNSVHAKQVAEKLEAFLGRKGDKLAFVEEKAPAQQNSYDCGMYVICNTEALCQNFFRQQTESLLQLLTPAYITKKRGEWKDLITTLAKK
# Format: functional
Calls of active or inactive are those of the source.
Hello, when you answer, please use one of the following outcomes: true (1) for active, false (0) for inactive

[in] Can you look up the reported call for COc1ccc(NC(=O)c2ccc(OCC3CCCO3)cc2)cc1Cl (stereo not given) for me?
[out] false (0)

[in] Moving on to the next compound: CCOc1ccc(/N=C/c2c(O)oc3ccccc3c2=O)cc1
[out] false (0)

[in] Moving on to the next compound: N#Cc1c(NC(=O)c2ccc(Br)o2)n(-c2ccccc2)c2nc3ccccc3nc12
[out] true (1)

[in] Moving on to the next compound: CCc1cccc2c(C(=O)COC(=O)c3ccccc3)c[nH]c12
[out] false (0)

[in] Moving on to the next compound: Fc1ccccc1CSc1nnc(-c2ccccc2)o1
[out] true (1)

----------
# assay.procedure: human group III sPLA2 inhibitors, dose response, biochemical, QFRET, IC50 (AID 743457);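 further: green fluorescence rise as the enzyme cleaves BODIPY PC-A2 in liposomes; potency for inhibition of the enzyme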
Activity calls are given as the source filed them.
Reported IC50 by item:

These solved cases illustrate the format of a correct answer.
[in] What measured IC50 goes with CCCCC(=O)NC(c1cccs1)c1cc(Cl)c2cccnc2c1O (stereo not given) ?
[out] > 122 µM (inactive)

[in] Moving on to the next compound: O=C(NNC(=S)NC(=O)c1ccccc1Cl)c1cccc([N+](=O)[O-])c1
[out] 22.3 µM (inactive)

[in] Moving on to the next compound: Cc1cc(N2CCCC2)ccc1NC(=O)COc1cccc(C(F)(F)F)c1
[out] > 122 µM (inactive)

Next:
[in] What measured IC50 goes with CCCCN=C(S)NNC(=O)c1ccc(Br)o1 ?
[out] > 122 µM (inactive)

[in] Moving on to the next compound: CN(C1=C(N2CCOCC2)C(=O)c2ccccc2C1=O)c1ccccc1
[out] > 122 µM (inactive)
